Reported IC50 values follow for various compounds
- System: A549
- experiment: Cytotoxicity against human A549 cells after 48 hrs by sulforhodamine B assay
- Assay type: functional, cell-based
- test-context: A549, 48 h
Give the value, in units of µM, as a plain number.

- chemical-smiles: "CC(=O)OC[C@H]1O[C@@H](n2cc(CN3C(=O)/C(=C\\c4ccc(C)cc4)c4ccccc43)nn2)[C@H](OC(C)=O)[C@@H](OC(C)=O)[C@@H]1OC(C)=O"
  measured-target: "A549"
  IC50 / µM: 16.5
- chemical-smiles: "CC(=O)OC[C@H]1O[C@@H](n2cc(Cn3cc(/C=C4/C(=O)Nc5ccc(F)cc54)c4ccccc43)nn2)[C@H](OC(C)=O)[C@@H](OC(C)=O)[C@@H]1OC(C)=O"
  measured-target: "A549"
  IC50 / µM: 36.9

Now turn to the next compound.
Entry CC(=O)OC[C@H]1O[C@@H](n2cc(Cn3cc(/C=C/C(=O)c4c5ccccc5cc5ccccc45)c4ccccc43)nn2)[C@H](OC(C)=O)[C@@H](OC(C)=O)[C@@H]1OC(C)=O has what IC50? 46.8
